The origin of these recorded values is ChEMBL document CHEMBL3885861.

Organism: Rattus norvegicus
Assay: Open TG-GATES - Regimen: Single
Format: toxicity, organism-based, Sprague-Dawley
Design: regimen Single, gender Male, age 6 weeks
Conditions: in vivo, po, 0 mg/kg, 24 h, tissue Blood, route gavage, dose level Control
MCH values, listed per item
Form entry: value (pg) — number only.

compound	unitOfMeasurement	MCH
O=[N+]([O-])c1ccc2c(c1)Cc1ccccc1-2	pg	20.5
CN(C)[C@@H]1C(O)=C(C(N)=O)C(=O)[C@@]2(O)C(O)=C3C(=O)c4c(O)cccc4[C@@](C)(O)[C@H]3C[C@@H]12	pg	22.1
Clc1c(Cl)c(Cl)c(Cl)c(Cl)c1Cl	pg	21.1
COc1cc([C@@H]2c3cc4c(cc3[C@@H](O[C@@H]3O[C@@H]5CO[C@@H](C)O[C@H]5[C@H](O)[C@H]3O)[C@H]3COC(=O)[C@H]23)OCO4)cc(OC)c1O [ETOPOSIDE]	pg	22.7
Cc1cccc(Nc2ccccc2C(=O)O)c1C	pg	22.4

MCH lookup needed for `CCOC(=O)[C@H](CCc1ccccc1)N[C@@H](C)C(=O)N1CCC[C@H]1C(=O)O` , thanks.
21.6

Please give the measured MCH for this compound: `CN1C(C(=O)Nc2ccccn2)=C(O)c2sc(Cl)cc2S1(=O)=O`
20.9

Which measured MCH value corresponds to CC(CN1c2ccccc2Sc2ccccc21)N(C)C (centres undefined) ?
20.8

Returns the measured MCH for the input compound. Input: CC(=O)Nc1nnc(S(N)(=O)=O)s1 [ACETAZOLAMIDE]
20.8
